# growth listing for each entry below
- Test system: KM12 colon
- test: NCI-60 one-dose screen, 48 h (100 = growth as untreated, 0 = no growth, -100 = all killed)
- conditions used: 10 µM unless noted
Compounds without any hit were thinned out: in the full panel of roughly 83,000, 20% have a hit.
Just the number please, in %, no unit attached.

These solved cases illustrate the format of a correct answer.
compound	growth [%]
COc1ccc(C(O)c2cc3c(N)c(C(=O)Nc4cccc(Br)c4)sc3nc2C)cc1 (stereo not given)	0.956
Cc1cc(=O)n(C(=O)Nc2ccccc2Cl)c2cc(O)ccc12	98.1

Ask: Check the records and state growth for Cn1cc(-c2csc(-c3cn(C(=O)OC(C)(C)C)c4ccc(Br)cc34)n2)c2ccnc(Cl)c21
Reply: 90.4

Ask: Check the records and state growth for O=S(=O)(Nc1cc(F)cc(Cl)c1)c1ccc(-c2cnc(C3CC3)o2)cc1
Reply: 29.4

Ask: Check the records and state growth for COc1ccc(-c2nc3c(ncc4ccc(=O)[nH]c43)s2)cc1
Reply: 64.8

Ask: Check the records and state growth for Nc1ncnc2c1C(c1ccc(Br)cc1)c1sc3c(F)cccc3c1O2 (stereo not given)
Reply: 91.8

Ask: Check the records and state growth for COC(=O)Nc1nc2ccc(S(=O)c3ccccc3)cc2[nH]1 (stereo not given)
Reply: 31.6

Ask: Check the records and state growth for COc1ccc(-c2ccc(-c3ccc(C(=N)N)cc3)s2)cc1Cl
Reply: -73.2

Ask: Check the records and state growth for C[PH+](c1nc2ccccc2nc1[PH+](C)C(C)(C)C)C(C)(C)C.C[PH+](c1nc2ccccc2nc1[PH+](C)C(C)(C)C)C(C)(C)C.[Au+].[Cl-] (stereo not given)
Reply: -99.3

Ask: Check the records and state growth for CC1OC(n2c3ccccc3c3c4c(c5c6ccccc6[nH]c5c32)C(=O)N(CCN2CCCC2)C4=O)CC(O)C1O (stereo not given)
Reply: 26.3
